I'd appreciate it if you could supply folding stability dG unfold values for the items below.
test: folding stability dG unfold from trypsin proteolysis; higher = more stable
Write the number in kcal/mol without appending the unit.

Qu. If you can, please state the reported folding stability dG unfold value of SAGGSAGGSAKKYVLLVTYRHPENGETRTVLVEVETEEEVERAVKELAPPEFDEVKVYVLPASAGGSAGGSA [r18_258_TrMRF] .
Ans. 2.83

Qu. If you can, please state the reported folding stability dG unfold value of SAGGSAGGSSVSVSFPSSVTKVEPELNDPNLTTFFESPGLVIKVTVVPGTGKVIIEKKPLSELSAGGSAGGS [r12_858_JUSTAS] .
Ans. 0.858

Qu. If you can, please state the reported folding stability dG unfold value of SAPDWVKIKFPFRFYNPDPDGKPMAKMKLEIEVYPSPGAYMAKIEDPNFGMKITFPFDSPEEVKDFLQNSAG [r14_508_TrROS] .
Ans. 1.25

Qu. If you can, please state the reported folding stability dG unfold value of SAGGARVFEVTFPDGSRARIVLLPDGTLLLETDSLDNLVALLEALGVELVSIRRHPDGRVLAVARLPPSAGG [r19_257_TrMRF] .
Ans. 4.49

Qu. If you can, please state the reported folding stability dG unfold value of SAIEITVMSDSPEEAKEKAKEFANWLQNRMRRDGLPDMPIPIKIEVIPVPPPKPKPKRDPDDGEWKPDPSAG [r14_475_TrROS] .
Ans. -0.415

Qu. If you can, please state the reported folding stability dG unfold value of SAKKKFKVKEVKVTKHKGKFKIGDKEIEKELYTVNVVIEDENGNKYPFTFTFEKPEELKKFVEKLEEEKSAG [r14_36_TrMRF] .
Ans. 3.03

Qu. If you can, please state the reported folding stability dG unfold value of SAGGSAGGSAGGMKLDVTIVGDGKVTTLPADSLEDVEETLKKLGLTLKSVDPATGTVTVASAGGSAGGSAGG [r7_726_JUSTAS] .
Ans. 0.718

Qu. If you can, please state the reported folding stability dG unfold value of SAGGAVVTPETEGDRTFVTTTDPESGSRTVTVTTYDPTTNTATTTTYFVPPDGVPTRVATTTTPLPPTSAGG [r13_768_JUSTAS] .
Ans. 1.2

Qu. If you can, please state the reported folding stability dG unfold value of SAGGPGYNINIDVKIYPDPNDNHFVIEVKITIMPMEPDPDDGGWKQRSRTVPQEILLPPGESAEDIFSAGGS [r8_323_TrROS] .
Ans. 3.19

Qu. If you can, please state the reported folding stability dG unfold value of SAGGSAGGSAGSTVTLELEIDGVRITVKAELTPDGELRLTITEVEVLPPPPVVHPDDPEALKSAGGSAGGSA [r18_176_TrROS_Hall] .
Ans. 1.54

Qu. If you can, please state the reported folding stability dG unfold value of SMVRITVYRNGKELSEEELRELAAELERETGRRITVEELARRLAARPGLTVRIEVFNEDGELVEERELRVSA [r9_1045_TrROS_Hall] .
Ans. 3.42

Qu. If you can, please state the reported folding stability dG unfold value of SAGGSATSIEYESPGVVETVSFTREPDGTLTVTVTVREPNGPVLKTLPTTETLPPDAGVTASVPLPSAGGSA [r15_950_JUSTAS] .
Ans. 0.0919

Qu. If you can, please state the reported folding stability dG unfold value of SAGGSAGGMRLVVEDFDEEEMEEVERRVREFAEEHDVEVDIYRRRRPDGRVVLVVEIRPKEDLPSAGGSAGG [r6_906_TrMRF] .
Ans. 2.87

Qu. If you can, please state the reported folding stability dG unfold value of SAGGASFSLSEGYDPSLGKTFTRETEAPEVPVPPVTVVPLSEIGRLKAEGVPPSWTVDPETGTVTVTSAGGS [r16_194_JUSTAS] .
Ans. -0.647

Qu. If you can, please state the reported folding stability dG unfold value of SAGGSAPRVVRVETVTLTPPADSTVTARLLRLETPEGPRYVLAVRDPSTPVVVARPVPEGATLLEESAGGSA [r15_75_TrMRF] .
Ans. -0.581

Qu. If you can, please state the reported folding stability dG unfold value of SAGGSAGGSAGGMSSTVSLSTSFLPNGEKVVTTTTTFTDSSTTTTTTTTTTVALPPPSVVSAGGSAGGSAGG [r7_495_JUSTAS] .
Ans. 1.14

Qu. If you can, please state the reported folding stability dG unfold value of SAGGSAGGSAMTVRFGKPEELEKAEELAEEIAKAHPGKPIKVTVTKDPNNPDEYTVTITEESAGGSAGGSAG [r3_131_JUSTAS] .
Ans. -0.24

Qu. If you can, please state the reported folding stability dG unfold value of SAGGSPLLVLHIRLRRPGEEREIVIPSDLIEDMPLEEIEEILRALPWIDEAEIELEEFPPLRPDELSAGGSA [r2_282_TrMRF] .
Ans. 1.21

Qu. If you can, please state the reported folding stability dG unfold value of SAGGSAGGSAGGRKRYRFKPGQRLEPRLVFRLKLRLELERDEDGNLSLKLELEIEEVRLLSAGGSAGGSAGG [r7_572_TrROS_Hall] .
Ans. 3.35

Qu. If you can, please state the reported folding stability dG unfold value of SAGGDEDKPKPKIEPKKEIEIVLPYPEDEVTPEELKARIEEETGEKITEIEVTRIPNSNEYKVKFTVESAGG [r13_457_JUSTAS] .
Ans. 0.227

Qu. If you can, please state the reported folding stability dG unfold value of SAGKPKVKVKKITVTITYDPETGTITIEATIEIDGKTIKLTITITLPEELRNLKPGDTITIEITIIIEPSAG [r5_714_TrROS_Hall] .
Ans. 3.4

Qu. If you can, please state the reported folding stability dG unfold value of SAGGSAGGSAMIEISSYTLPNGELVVEVTIPDPNSDKTTTLRGKYSSLEEAREEAEKLYLQSAGGSAGGSAG [r3_174_JUSTAS] .
Ans. 1.52

Qu. If you can, please state the reported folding stability dG unfold value of SAGGSIVDRIRKILKEYGYTAQVERNGDGITIVVQFNKEQRKKIVSEIQEDFGYPIKIEVMPPGQELSAGGS [r16_514_TrROS] .
Ans. 1.97

Qu. If you can, please state the reported folding stability dG unfold value of SAGGSAGGSASIEVAAPPDATVTITTEITRKLPAGAKLPNGVVASADETLKETVTTTITVLGSAGGSAGGSA [r18_450_JUSTAS] .
Ans. -0.27

Qu. If you can, please state the reported folding stability dG unfold value of SAGGSAGGSAPMEIWVLIDSPEKAKDLAKEIAHELQQSGIKIKVEVEQPPNGYYLVKIRFDSAGGSAGGSAG [r3_211_TrROS] .
Ans. 1.89

Qu. If you can, please state the reported folding stability dG unfold value of SAGGEEEEFEVVAEIEIEVDGKTYTITIVRDKETDEYRVEIRNKETGETKTITVSAEELEELLKALSSAGGS [r8_469_TrROS_Hall] .
Ans. 3.17

Qu. If you can, please state the reported folding stability dG unfold value of SAGGMVIVFPAPKDISPDELRELIEAEVGPLAEELGLTEASIPIAKVEELPEGSRRVVAVIELRFDGSAGGS [r8_184_TrMRF] .
Ans. 0.977

Reference source: the supplement of paper PMC12764529
